Where these numbers come from: patent US12612372B2

- System: Tau-BiFC cells
- METHOD: Cell viability (stained nuclei count) in tau-BiFC cells
- CONDITION NOTES: 10 μM compound; stained nuclei relative to Forskolin-only group (100%), 48 hours
Listing of entries alongside the reported Cell viability (%, @10 μM).
Field format: number, assumed %, no unit text.

For orientation, consider the following solved cases.
{"COMPOUND": "Cc1ccc(=O)n(-c2ccc(NN=C(C#N)C#N)cc2)n1 [Comparative Example 6, reference compound]", "UNIT ABBREVIATION": "%", "Cell viability (%, @10 μM)": 114.9}
{"COMPOUND": "COCCN1N=C(c2ccc(NN=C(C#N)C#N)cc2)C(C)CC1=O (stereo not shown)", "UNIT ABBREVIATION": "%", "Cell viability (%, @10 μM)": 95.7}

# next compound below
[ask] // query Cell viability (%, @10 μM) value for entry CC1CC(=O)NN=C1c1ccc(NN=C(C#N)C#N)cc1 (stereo not shown) [Comparative Example 4, reference compound]
[reply] 120.3

---

- METHOD: Liver microsome stability, mouse
- Assay type: in vitro ADME
- CONDITION NOTES: mouse liver microsomes 0.25 mg/mL, 1 μM compound, 37° C., 30 minutes, NADPH
ASSAY METRIC: Mouse (%) amount remaining after the reaction
// units = %; emit number, no label

Examples from the recorded data:
{"MOLECULE": "CC1CC(=O)N(CC(F)(F)F)N=C1c1ccc(NN=C(C#N)C#N)cc1 (stereo not drawn)", "READING": 89}
{"MOLECULE": "COCCN1N=C(c2ccc(NN=C(C#N)C#N)cc2)C(C)CC1=O (stereo not drawn)", "READING": 94.9}
{"MOLECULE": "CC1CC(=O)N(C2CC2)N=C1c1ccc(NN=C(C#N)C#N)cc1 (stereo not drawn)", "READING": 92.7}
{"MOLECULE": "CCN1N=C(c2ccc(NN=C(C#N)C#N)cc2)C(C)CC1=O (stereo not drawn)", "READING": 89.6}

Shift focus to the following entry.
[ask] What does the data say about its Mouse (%) amount remaining after the reaction? Entry: CC1CC(=O)N(C(C)C)N=C1c1ccc(NN=C(C#N)C#N)cc1 (stereo not drawn)
[reply] 89

---

- METHOD: Liver microsome stability, dog
- Format: in vitro ADME
- CONDITION NOTES: dog liver microsomes 0.25 mg/mL, 1 μM compound, 37° C., 30 minutes, NADPH
ASSAY METRIC: Dog (%) amount remaining after the reaction
Express it in %; write the number only.

// known answers, use as guide
{"COMPOUND": "CC1CC(=O)N(C2CC2)N=C1c1ccc(NN=C(C#N)C#N)cc1 (stereo not drawn) [Example 6]", "READING": 99.5}
{"COMPOUND": "CCN1N=C(c2ccc(NN=C(C#N)C#N)cc2)C(C)CC1=O (stereo not drawn) [Example 3]", "READING": 91.9}

Proceeding to the next compound to report its Dog (%) amount remaining after the reaction.
[ask] Which Dog (%) amount remaining after the reaction value belongs to CC1CC(=O)N(CC(F)(F)F)N=C1c1ccc(NN=C(C#N)C#N)cc1 (stereo not drawn) [Example 4] ?
[reply] 95.6

---

- SYSTEM NAME: tau protein (Homo sapiens)
- Construct: fused on or other part: Split Venus fragments VN173 and VC155, each fused to one copy of tau as BiFC reporter halves
- METHOD: Tau-BiFC cell model, Forskolin-induced tau protein aggregation
- Format: cell-based
- CONDITION NOTES: 10 μM compound; BiFC fluorescence relative to Forskolin-only group (100% tau protein-aggregated state), 48 hours
ASSAY METRIC: Tau BiFC in cells Response (%, @10 μM) (%)
Report the figure in % without appending any unit label.

Solved cases below.
{"COMPOUND": "COc1ccc(N2N=C(c3ccc(NN=C(C#N)C#N)cc3)C(C)CC2=O)cc1 (centres unmarked)", "UNIT ABBREVIATION": "%", "Tau BiFC in cells Response (%, @10 μM)": 2.3}
{"COMPOUND": "CC1CC(=O)N(CC(F)(F)F)N=C1c1ccc(NN=C(C#N)C#N)cc1 (centres unmarked)", "UNIT ABBREVIATION": "%", "Tau BiFC in cells Response (%, @10 μM)": 0}
{"COMPOUND": "C[C@@H]1CC(=O)NN=C1c1ccc(NN=C(C#N)C#N)cc1 [Levosimendan, reference compound]", "UNIT ABBREVIATION": "%", "Tau BiFC in cells Response (%, @10 μM)": 9.58}
{"COMPOUND": "CCN1N=C(c2ccc(NN=C(C#N)C#N)cc2)C(C)CC1=O (centres unmarked)", "UNIT ABBREVIATION": "%", "Tau BiFC in cells Response (%, @10 μM)": 0}
{"COMPOUND": "N#CC(C#N)=NNc1ccc(-c2ccc(=O)[nH]n2)cc1 [Comparative Example 1, reference compound]", "UNIT ABBREVIATION": "%", "Tau BiFC in cells Response (%, @10 μM)": 10.1}

[ask] Name the reported Tau BiFC in cells Response (%, @10 μM) value associated with the compound Cc1cnn(-c2ccc(NN=C(C#N)C#N)cc2)c(=O)c1 [Comparative Example 7, reference compound]
[reply] 19.4

[ask] Data request, read-out Tau BiFC in cells Response (%, @10 μM), for N#CC(C#N)=NNc1ccc(-n2ncccc2=O)cc1 [Comparative Example 5, reference compound]
[reply] 35.1

[ask] For the compound CC1CC(=O)NN=C1c1ccc(NN=C(C#N)C#N)cc1 (centres unmarked) [Comparative Example 4, reference compound] , what Tau BiFC in cells Response (%, @10 μM) is on record?
[reply] 45.7

[ask] Request the reported Tau BiFC in cells Response (%, @10 μM) associated with Cc1cc(=O)[nH]nc1-c1ccc(NN=C(C#N)C#N)cc1 [Comparative Example 2, reference compound]
[reply] 1.8

[ask] Returns the measured Tau BiFC in cells Response (%, @10 μM) for the input compound. Input: CC1CC(=O)N(C2CC2)N=C1c1ccc(NN=C(C#N)C#N)cc1 (centres unmarked)
[reply] 0

[ask] Given the compound Cc1cc(-c2ccc(NN=C(C#N)C#N)cc2)n[nH]c1=O [Comparative Example 3, reference compound] , what is its reported Tau BiFC in cells Response (%, @10 μM)?
[reply] 37.11

---

Collected pIC50 values appear next to each entry.
- SYSTEM NAME: tau protein (Homo sapiens, UniProt P10636)
- Construct: fused on or other part: Split Venus fragments VN173 and VC155, each fused to one copy of tau as BiFC reporter halves
- Sequence (P10636 2-441 isoform P10636-8 limits assumed): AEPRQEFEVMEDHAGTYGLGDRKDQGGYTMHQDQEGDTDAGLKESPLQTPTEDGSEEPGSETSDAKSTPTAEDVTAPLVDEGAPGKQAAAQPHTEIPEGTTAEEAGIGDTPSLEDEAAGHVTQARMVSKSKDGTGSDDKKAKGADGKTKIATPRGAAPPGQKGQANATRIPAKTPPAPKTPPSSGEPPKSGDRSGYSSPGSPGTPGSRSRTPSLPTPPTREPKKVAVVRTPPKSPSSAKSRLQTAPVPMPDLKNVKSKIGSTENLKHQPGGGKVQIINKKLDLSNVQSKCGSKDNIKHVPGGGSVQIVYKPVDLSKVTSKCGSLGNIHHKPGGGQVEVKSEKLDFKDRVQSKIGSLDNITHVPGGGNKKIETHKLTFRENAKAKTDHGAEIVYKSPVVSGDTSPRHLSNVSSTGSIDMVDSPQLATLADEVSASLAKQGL
- METHOD: Tau-BiFC cell model, Forskolin-induced tau protein aggregation
- Format: cell-based
- Method: In order to select novel tau protein aggregation—inhibiting substances, tau-BiFC cell model, in which formation of tau oligomers in living cells is easily observed, was used. Tau-BiFC cells were aliquoted into a 384-well plate. […] After 48 hours, nuclei in the cells were stained using Hoechst (at a treatment concentration of 2 μg/mL), and BiFC fluorescence intensity was automatically measured using Operetta (PerkinElmer) to count stained nuclei in each well out of the entire well plate. […]
To interpret pIC50, take it as minus log10 of a concentration measured in moles per litre.

[ask] Form field - read-out: pIC50; system: tau protein (Homo sapiens, UniProt P10636); submitted item: CC1CC(=O)N(C2CC2)N=C1c1ccc(NN=C(C#N)C#N)cc1 (stereo not drawn)
[reply] 7.15

[ask] Lab note: need pIC50 for CC1CC(=O)N(C(C)C)N=C1c1ccc(NN=C(C#N)C#N)cc1 (stereo not drawn) on tau protein (Homo sapiens, UniProt P10636), anyone have it?
[reply] 6.40

[ask] # query: pIC50 | item COCCN1N=C(c2ccc(NN=C(C#N)C#N)cc2)C(C)CC1=O (stereo not drawn) | system: tau protein (Homo sapiens, UniProt P10636)
[reply] 7.05

[ask] Please tell me: pIC50 of CC1CC(=O)N(CC(F)(F)F)N=C1c1ccc(NN=C(C#N)C#N)cc1 (stereo not drawn) , system tau protein (Homo sapiens, UniProt P10636)?
[reply] 6.35

[ask] Param readout= pIC50; system= tau protein (Homo sapiens, UniProt P10636); entry= COc1ccc(N2N=C(c3ccc(NN=C(C#N)C#N)cc3)C(C)CC2=O)cc1 (stereo not drawn) ; returns value.
[reply] 6.03

[ask] Recorded pIC50 for CCN1N=C(c2ccc(NN=C(C#N)C#N)cc2)C(C)CC1=O (stereo not drawn) with tau protein (Homo sapiens, UniProt P10636), please?
[reply] 7.05

---

- SYSTEM NAME: CYP3A4 (Homo sapiens)
- Construct: human liver microsomes (0.25 mg/mL); from tissue; host or cells: human liver microsomes
- Sequence (P08684 whole entry): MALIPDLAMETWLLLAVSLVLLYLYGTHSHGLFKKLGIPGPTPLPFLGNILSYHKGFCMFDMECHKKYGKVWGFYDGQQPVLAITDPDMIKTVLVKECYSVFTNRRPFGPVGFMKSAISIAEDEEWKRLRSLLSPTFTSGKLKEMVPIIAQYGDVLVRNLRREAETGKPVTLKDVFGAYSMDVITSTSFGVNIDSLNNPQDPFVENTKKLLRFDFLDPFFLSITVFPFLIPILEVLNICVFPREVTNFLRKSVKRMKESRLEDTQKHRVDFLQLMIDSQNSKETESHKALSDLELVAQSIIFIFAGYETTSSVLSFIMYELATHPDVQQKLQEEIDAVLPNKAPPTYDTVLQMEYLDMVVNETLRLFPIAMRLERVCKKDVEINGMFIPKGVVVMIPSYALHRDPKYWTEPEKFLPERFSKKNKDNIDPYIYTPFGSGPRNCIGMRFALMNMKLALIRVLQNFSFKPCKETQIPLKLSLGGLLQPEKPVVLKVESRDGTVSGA
- METHOD: CYP coenzyme activity in human liver microsomes, CYP3A4
- Type: in vitro ADME
- CONDITION NOTES: 10 μM compound, human liver microsomes 0.25 mg/mL, substrate midazolam, 15 minutes
ASSAY METRIC: CYP3A4 activity (%) with respect to control group not treated with any compound
The answer is to be given in %; state only the numeric part.

Recorded CYP3A4 activity (%) with respect to control group not treated with any compound, per entry:
{"COMPOUND": "CC1CC(=O)N(CC(F)(F)F)N=C1c1ccc(NN=C(C#N)C#N)cc1 (stereo not drawn)", "UNIT ABBREVIATION": "%", "READING": 74.2}
{"COMPOUND": "CC1CC(=O)N(C(C)C)N=C1c1ccc(NN=C(C#N)C#N)cc1 (stereo not drawn)", "UNIT ABBREVIATION": "%", "READING": 74.6}
{"COMPOUND": "CC(C)N1N=C(c2ccc(NN=C(C#N)C#N)cc2)CCC1=O", "UNIT ABBREVIATION": "%", "READING": 81.7}
{"COMPOUND": "CC1CC(=O)N(C2CC2)N=C1c1ccc(NN=C(C#N)C#N)cc1 (stereo not drawn)", "UNIT ABBREVIATION": "%", "READING": 79.5}

Kindly review the next compound as well.
[ask] Need CYP3A4 activity (%) with respect to control group not treated with any compound, item COCCN1N=C(c2ccc(NN=C(C#N)C#N)cc2)C(C)CC1=O (stereo not drawn)
[reply] 74.2
